- MEASURED TARGET: Exotoxin A (Pseudomonas aeruginosa, UniProt P11439 26-638)
- Sequence (P11439 26-638): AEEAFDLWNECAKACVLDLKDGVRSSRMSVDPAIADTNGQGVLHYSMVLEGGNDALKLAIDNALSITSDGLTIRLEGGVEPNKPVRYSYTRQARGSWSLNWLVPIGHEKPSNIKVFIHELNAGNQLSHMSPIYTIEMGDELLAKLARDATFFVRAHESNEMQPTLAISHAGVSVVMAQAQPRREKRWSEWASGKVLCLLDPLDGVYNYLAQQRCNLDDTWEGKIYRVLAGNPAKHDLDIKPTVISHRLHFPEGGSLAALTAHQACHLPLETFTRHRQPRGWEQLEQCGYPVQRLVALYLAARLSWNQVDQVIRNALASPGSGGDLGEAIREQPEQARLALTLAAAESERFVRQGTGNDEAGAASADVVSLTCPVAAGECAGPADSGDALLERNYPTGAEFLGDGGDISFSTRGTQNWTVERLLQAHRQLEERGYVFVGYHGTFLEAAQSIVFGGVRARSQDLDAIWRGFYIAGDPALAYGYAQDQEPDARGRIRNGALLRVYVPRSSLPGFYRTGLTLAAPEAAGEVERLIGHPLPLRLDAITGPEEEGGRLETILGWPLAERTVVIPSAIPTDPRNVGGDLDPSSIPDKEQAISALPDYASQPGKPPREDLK
- METHOD DESCRIPTION: SPR; […]; 0-2 uM analyte, 1:1 kinetic model; SPR (Biacore X100): 100 mM NaCl, 20 mM Tris-HCl, 2 mM MgCl2 (pH not stated), room temperature, 5 uL/min
- STATED CONDITIONS: protein: commercial; tags: none stated
MEASURED ENDPOINT: Kd
Put your answer as a value accompanied by its unit after it.

### Prompt Quick one: Kd of R14.33 (ssDNA, 5' amino-C6) DNA: TGTACCGTCTGAGCGATTCGTACCATAGGGTGCTTTTCAAGGCCACACGTTAGTGTAAGCCAGTCAGTGTTAAGGAGTGC ?
### Response 4.35 µM
